# target: aurora2 kinase (Homo sapiens, UniProt O14965)
# Sequence (O14965 1-403): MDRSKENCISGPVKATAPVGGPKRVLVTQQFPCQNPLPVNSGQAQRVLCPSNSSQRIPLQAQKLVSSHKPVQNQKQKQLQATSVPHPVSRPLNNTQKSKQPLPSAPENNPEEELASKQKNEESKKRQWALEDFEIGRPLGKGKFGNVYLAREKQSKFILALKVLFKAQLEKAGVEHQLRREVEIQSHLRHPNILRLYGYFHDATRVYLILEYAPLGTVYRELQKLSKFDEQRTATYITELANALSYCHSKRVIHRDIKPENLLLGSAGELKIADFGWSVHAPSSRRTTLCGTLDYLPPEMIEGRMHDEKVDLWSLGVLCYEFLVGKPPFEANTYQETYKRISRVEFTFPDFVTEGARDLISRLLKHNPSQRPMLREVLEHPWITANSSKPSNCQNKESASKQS
quantity-kind: IC50 (nM)
One number for each entry, in nM.

[ask] Quick one: IC50 of `COc1cc2ncnc(Nc3cnc(NC(=O)c4ccccc4)nc3)c2cc1OC` ?
[reply] 7.85
